experiment: Partition coefficient, log P of the compound; format: physicochemical; details: octanol/water
Reported values of logP for individual entries
Give the value as a plain number.

Some entries whose results are on file:
C=CCc1cc(CN2CCOCC2)c(O)c(-c2cc(CC=C)c(O)c(CN3CCOCC3)c2)c1: 3.95
C=CCc1cc(O)c(O)c(-c2cc(CC=C)cc(O)c2O)c1: 3.76

Query: Name the reported logP value associated with the molecule C=CCc1cc(-c2cc(CC=C)c(O)c([N+](=O)[O-])c2)c(O)c([N+](=O)[O-])c1
Response: 4.57

Query: Can you share its logP? I mean this molecule: C=CCc1cc(NC(C)=O)c(O)c(-c2cc(CC=C)c(O)c(NC(C)=O)c2)c1
Response: 3.09

Query: # input molecule: C=CCc1ccc(OC)c(-c2cc(CC=C)ccc2OC)c1 ; wanted: its logP
Response: 5.35

###

assay: Partition coefficient, log P of the compound; type: physicochemical; conditions: octanol/water
assay.endpoint: logP
API doc: respond with a numeric literal and nothing else, no unit.

Answered cases to consult:
C=CCc1cc(/C=N\CCCCCC)c(O)c(-c2ccc(O)c(CC=C)c2)c1: 7.22
C=CCc1ccc(O)c(-c2ccc3oc(C)cc3c2)c1: 4.79
C=CCc1cc(CO)c(O)c(-c2ccc(O)c(CC=C)c2)c1: 4.27
C=CCc1cc(Br)c(O)c(-c2ccc(OC)c(CC=C)c2)c1: 5.81
C=CCc1cc(N)c(O)c(-c2cc(N)c(O)c(CC=C)c2)c1: 3.62

Now, please, on to the next molecule.
Query: State the recorded logP for this entry: C=CCc1cc(/C=N\C2CCCCC2)c(O)c(-c2ccc(O)c(CC=C)c2)c1
Response: 6.67

###

test: Partition coefficient, log P of the compound; type: physicochemical; conditions: octanol/water
Decision: logP >= 5 yields 1 (yes), all other cases yield 0 (no).

Please review the following examples before continuing.
C=CCc1ccc(O)c(-c2cc(C=O)c(O)c(CC=C)c2)c1: 0 (no)
C=CCc1ccc(O)c(-c2cc(/C=C3\SC(=O)NC3=O)c(O)c(CC=C)c2)c1: 0 (no)
C=CCc1cc(C=O)c(O)c(-c2cc(C=O)c(O)c(CC=C)c2)c1: 0 (no)

Query: Quick check: does CCCc1ccc(O)c(-c2ccc(O)c(CCC)c2)c1 have logP greater than or equal to 5?
Response: 1 (yes)

Query: logP >= 5 for CCCc1ccc(O)c(-c2cc(CCC)ccc2O)c1 ?
Response: 1 (yes)

Query: Does the compound C=CCc1cc(/C(CC)=C(\CC)c2ccc(O)c(CC=C)c2)ccc1O have recorded logP that is 5 or more?
Response: 1 (yes)

Query: Is logP at least 5? Consider CCCc1ccc(O)c(-c2ccc3oc(C)cc3c2)c1
Response: 1 (yes)

Query: For this compound, is measured logP 5 or higher? Oc1ccccc1-c1ccccc1O
Response: 0 (no)

Query: Hi, just wondering whether C=CCc1cc(/C=N/CCN)c(O)c(-c2ccc(O)c(CC=C)c2)c1 shows logP of 5 or higher.
Response: 0 (no)

Query: Form field: logP at least 5? Entry: C=CCc1ccc(O)c(-c2cc(CC=C)c(O)c(C(C)(C)C)c2)c1
Response: 1 (yes)

Query: Evaluate C=CCc1cc(/C=C(\C#N)C(=O)OCC)c(O)c(-c2ccc(O)c(CC=C)c2)c1 : logP at minimum 5?
Response: 1 (yes)

Query: Does the compound O=Cc1ccc(O)c(-c2ccc(O)c(CC3CO3)c2)c1 (centres undefined) have recorded logP that is 5 or more?
Response: 0 (no)

Query: Determine whether this compound has logP no lower than 5: C=CCc1cc(CO)c(O)c(-c2cc(CO)c(O)c(CC=C)c2)c1
Response: 0 (no)

Query: Test whether the compound C=CCc1cc(-c2ccc(OC)c(CC=C)c2)ccc1O records logP of 5 or higher.
Response: 1 (yes)

Query: Is logP for C=CCc1ccc(O)c(-c2ccc(O)c(CC(O)COC)c2)c1 (centres undefined) at or above 5?
Response: 0 (no)

Query: Quick check, logP >= 5? C=CCc1cc(/C=N/O)c(O)c(-c2ccc(O)c(CC=C)c2)c1
Response: 1 (yes)

Query: Say whether C=CCc1cc(/C=N/O)c(O)c(-c2cc(/C=N/O)c(O)c(CC=C)c2)c1 shows logP of 5 or more.
Response: 1 (yes)

Query: Kindly determine if logP recorded for C=CCc1cc(/C=N/Nc2ccccc2)c(O)c(-c2ccc(O)c(CC=C)c2)c1 is above or exactly 5.
Response: 1 (yes)

Query: Say whether C=CCc1cc(C(c2ccc(O)c(CC=C)c2)c2ccccn2)ccc1O shows logP of 5 or more.
Response: 1 (yes)

Query: Is reported logP greater than or equal to 5 here: C=CCc1cc(/C=N\c2ccc(N)cc2)c(O)c(-c2ccc(O)c(CC=C)c2)c1
Response: 1 (yes)

Query: State whether the measured logP reaches 5, counting equality as reaching it, for C=CCc1cc(CN2CCC(N)CC2)c(O)c(-c2cc(CC=C)c(O)c(CN3CCC(N)CC3)c2)c1
Response: 0 (no)

Query: Is it the case that C=CCc1cc(C2(c3ccc(O)c(CC=C)c3)CCCCC2)ccc1O has logP reaching or exceeding 5?
Response: 1 (yes)

Query: # check: logP of C=CCc1ccc(Oc2cc(CC=C)ccc2O)cc1 is greater than or equal to 5
Response: 0 (no)

Query: Please tell me: is the compound C=CCc1cc(-c2ccc3c(c2)OCCO3)ccc1O at or over 5 in terms of logP?
Response: 0 (no)
